Origin of values: paper PMC8569681

TARGET: Electrophorus electricus AChE (EeAChE) (Electrophorus electricus)
Construct: purchased Sigma-Aldrich (Milan, Italy)
Sequence (O42275 24-633): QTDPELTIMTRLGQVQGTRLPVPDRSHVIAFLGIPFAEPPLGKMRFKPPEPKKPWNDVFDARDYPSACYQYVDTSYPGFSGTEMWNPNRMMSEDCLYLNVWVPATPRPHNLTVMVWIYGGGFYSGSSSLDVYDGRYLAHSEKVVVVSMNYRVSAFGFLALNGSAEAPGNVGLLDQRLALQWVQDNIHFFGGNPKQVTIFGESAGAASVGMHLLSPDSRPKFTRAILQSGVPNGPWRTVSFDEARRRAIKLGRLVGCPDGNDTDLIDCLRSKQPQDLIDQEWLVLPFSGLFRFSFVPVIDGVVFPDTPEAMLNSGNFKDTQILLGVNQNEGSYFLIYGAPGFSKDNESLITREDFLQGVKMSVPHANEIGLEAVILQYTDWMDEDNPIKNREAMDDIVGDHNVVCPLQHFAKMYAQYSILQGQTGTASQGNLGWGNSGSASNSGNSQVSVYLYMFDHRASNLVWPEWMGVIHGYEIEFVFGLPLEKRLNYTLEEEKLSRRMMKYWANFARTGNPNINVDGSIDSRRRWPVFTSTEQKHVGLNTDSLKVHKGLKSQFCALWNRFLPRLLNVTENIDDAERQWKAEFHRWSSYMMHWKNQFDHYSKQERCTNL
RUN DESCRIPTION: Percent inhibition of EeAChE, Ellman's spectrophotometric method
Type: biochemical
REPORTED CONDITIONS: read-out: % inhibition vs EeAChE ± SD, [I] 9 μM; 0.0833 U/mL enzyme, 100 μM acetylthiocholine
Please provide measured inhibition at 9 µM for the entries that follow.

**Query** Any idea what inhibition at 9 µM came out for Oc1cccc(CNCCCCCCNc2ncccn2)c1O on Electrophorus electricus AChE (EeAChE) (Electrophorus electricus)?
**Result** ~90%

**Query** Lab request: please report inhibition at 9 µM under test system Electrophorus electricus AChE (EeAChE) (Electrophorus electricus) for Clc1cc(CNCCCCCNc2ncccn2)cc(Cl)n1
**Result** 16.5%

**Query** Test system Electrophorus electricus AChE (EeAChE) (Electrophorus electricus); read-out inhibition at 9 µM; what value for COc1ccccc1CNCCCCCNc1ncccn1 ?
**Result** 60 to 70%

**Query** Hi! What's the reported inhibition at 9 µM for c1cnc(NCCCCCCNCc2c[nH]c3ccccc23)nc1 on Electrophorus electricus AChE (EeAChE) (Electrophorus electricus)?
**Result** 60 to 70%

**Query** # value lookup — system Electrophorus electricus AChE (EeAChE) (Electrophorus electricus), readout inhibition at 9 µM, item Oc1cccc(CNCCCCCCNc2ncccn2)c1
**Result** ~90%

**Query** Query inhibition at 9 µM on Electrophorus electricus AChE (EeAChE) (Electrophorus electricus) for COc1cc(CNCCCCCCNc2ncccn2)ccc1O
**Result** 60 to 70%

**Query** Checklist item: inhibition at 9 µM tested on Electrophorus electricus AChE (EeAChE) (Electrophorus electricus), entry COc1ccccc1CNCCCCCCNc1ncccn1 , value?
**Result** 60 to 70%

**Query** Tell me reported inhibition at 9 µM for c1ccc(CNCCCCCCNc2ccccn2)cc1 , tested with Electrophorus electricus AChE (EeAChE) (Electrophorus electricus).
**Result** 73%

----------
TARGET: equine BChE (eqBChE) (Equus caballus)
Construct: purchased Sigma-Aldrich (Milan, Italy)
Sequence (P81908 whole entry): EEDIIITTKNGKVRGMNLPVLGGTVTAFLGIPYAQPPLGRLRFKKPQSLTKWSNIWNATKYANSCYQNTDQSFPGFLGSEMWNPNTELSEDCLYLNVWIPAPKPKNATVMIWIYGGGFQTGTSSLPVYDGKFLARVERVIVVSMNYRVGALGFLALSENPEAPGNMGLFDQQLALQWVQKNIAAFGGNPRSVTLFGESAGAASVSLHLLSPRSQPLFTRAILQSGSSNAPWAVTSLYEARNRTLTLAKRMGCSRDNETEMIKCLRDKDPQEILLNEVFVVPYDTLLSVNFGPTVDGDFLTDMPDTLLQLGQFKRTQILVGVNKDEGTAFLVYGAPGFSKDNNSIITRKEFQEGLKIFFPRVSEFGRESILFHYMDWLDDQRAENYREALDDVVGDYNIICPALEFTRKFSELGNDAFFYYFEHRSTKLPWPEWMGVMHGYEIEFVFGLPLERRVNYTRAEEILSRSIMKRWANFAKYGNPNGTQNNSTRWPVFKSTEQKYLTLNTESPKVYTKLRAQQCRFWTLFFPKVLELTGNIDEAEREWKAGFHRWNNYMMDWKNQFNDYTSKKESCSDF
RUN DESCRIPTION: Percent inhibition of eqBChE, Ellman's spectrophotometric method
Type: biochemical
REPORTED CONDITIONS: [I] 9 μM; 0.0833 U/mL enzyme, 100 μM acetylthiocholine; read-out: % inhibition vs eqBChE ± SD
Give inhibition at 9 µM for every item shown.
Report the value in % with no unit label.

**Query** Fill in the blank: the reported inhibition at 9 µM of Brc1ccc(CNCCCCCNc2ccccn2)cc1 [Compound 24] is ____.
**Result** 56.4

**Query** Please give the measured inhibition at 9 µM for this compound: COc1cc(CNCCCCCCNc2ccccn2)ccc1O [Compound 30]
**Result** 91

**Query** What does the record list as inhibition at 9 µM for c1ccc(CNCCCCCCNc2ccccn2)cc1 [Compound 25] ?
**Result** 71.6

**Query** Query (compound): Brc1ccc(CNCCCCCCNc2ccccn2)cc1 [Compound 26] ; field requested: inhibition at 9 µM
**Result** 76.8

**Query** Value lookup for inhibition at 9 µM; key = Brc1ccc(CNCCCCCCNc2ncccn2)cc1 [Compound 14]
**Result** 38.6

**Query** Request the reported inhibition at 9 µM associated with Oc1cccc(CNCCCCCCNc2ccccn2)c1O [Compound 32]
**Result** 59.8

**Query** So what does the record say about inhibition at 9 µM for COc1ccccc1CNCCCCCCNc1ncccn1 [Compound 16] ?
**Result** 43.9
